Can you tell me log10(koff) for the items I'm about to list?
- MEASURED ON: T1, human PVRIG-his (AcroBiosystems, Cat NO. PVG-H52H4) (human, UniProt Q6DKI7 41-171, limits assumed)
- T1 construct: also called human PVRIG protein
- T1 sequence (looked up): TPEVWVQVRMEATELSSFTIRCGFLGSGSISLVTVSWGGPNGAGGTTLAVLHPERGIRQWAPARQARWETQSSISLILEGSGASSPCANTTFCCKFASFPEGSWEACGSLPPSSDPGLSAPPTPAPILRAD
- PROTOCOL SUMMARY: SPR (BIAcore), antibody captured on Protein A chip, human PVRIG-His analyte
Transform log10 | Measure koff | Unit s⁻¹

Below are worked cases with known answers.
BINDER	RESULT NUMBER
PVRIG-A50-H2a (Fc fusion, humanized variant of PVRIG-A50; also called A50.VH2a; not shown: constant part not restated for the humanized forms; parents are VHH-hinge-CH2-CH3 of human IgG1; detected by anti-human) EVQLVESGGGLVQPGGSLRLSCAASGFTFSYYDMSWVRQAPGKGLEWVSTINSNAGRTSYVDSVKGRFTISRDNTKNTLYLQMNSLRAEDTAVYYCVEGDPHNFGLESLSLRDFGSWGQGTMVTVSS	-4.79
PVRIG-A50-H1b (Fc fusion, humanized variant of PVRIG-A50; also called A50.VH1b; not shown: constant part not restated for the humanized forms; parents are VHH-hinge-CH2-CH3 of human IgG1; detected by anti-human) EVQLVESGGGLVQPGGSLRLSCAASGFTFSYYDMSWVRQAPGKGLEWVSTINSDGGRTSYVDSVKGRFTISRDNSKNTLYLQMNSLRAEDTAVYYCVEGDPHNFGLESLSLRDFGSWGQGTMVTVSS	-4.55
PVRIG-A105-H5 (Fc fusion, humanized variant of PVRIG-A105; also called A105.VH5; not shown: constant part not restated for the humanized forms; parents are VHH-hinge-CH2-CH3 of human IgG1; detected by anti-human) EVQLVESGGGLVQPGGSLRLSCAASGRTFDRHTMTWFRQAPGKEREFVATASRIPGDTYYVDSVKGRFTISRDNAKNSLYLQMNSLRAEDTAVYYCAATSAYCSEVDCYEKGSWYDNWGQGIQVTVSS	-3.04

Please look at the items below and tell me log10(koff) for each one, in order.
1. PVRIG-A118-H7 (Fc fusion, humanized variant of PVRIG-A118; also called A118.VH7; not shown: constant part not restated for the humanized forms; parents are VHH-hinge-CH2-CH3 of human IgG1; detected by anti-human) EVQLVESGGGLVQPGGSLRLSCAASETYFDLYVMGWYRQAPGKDRELVATITYTGSIKYVDSVKGRFTISRGDAKNSLYLQMNSLRAEDTAVYFCNADPSGLGRKVYWGQGTMVTVSS
2. PVRIG-A50-H1e (Fc fusion, humanized variant of PVRIG-A50; also called VH1e; not shown: constant part not restated for the humanized forms; parents are VHH-hinge-CH2-CH3 of human IgG1; detected by anti-human) EVQLVESGGGLVQPGGSLRLSCAASGFTFSYYDMSWVRQAPGKGLEWVSTINSNAGRTSYVDSVKGRFTISRDNSKNTLYLQMNSLRAEDTAVYYCVEGDPHNFGLESLSLRDFGSWGQGTMVTVSS

Response given:
-2.59
-4.84
